This collection of values is drawn from paper PMC11992225.

# Test system: non-growing UPEC CFT073
# run-description: Dilution-regrowth assay (screen, hit validation, dose-response) on stationary-phase UPEC
# Type: cell-based, Escherichia coli
# assay-setup: E. coli in LPM (pH 5.5); concentration 5; average
# Protocol: The cultures were incubated for 24 h in non-baffled Erlenmeyer flasks at 37 °C with shaking at 200 rpm. The high-throughput screening (HTS) procedure was based on the protocol by Hazan and colleagues[15] and conducted at the Chemical Biology Consortium Sweden (CBCS) screening facility. […] The plates were incubated at 37 °C for 6 h in humidified boxes, then OD600 was measured using a microplate reader. […]
property: Regrowth, OD600 at 6h or 8h after dilution into drug-free medium
Reply with the value as a number alone.

N[C@@H]1CCCCN(c2c(F)cc3c(=O)c(C(=O)O)cn(C4CC4)c3c2Cl)C1
0.531
CCCCCCCCN=c1ccn(CCCCCCCCCCn2ccc(=NCCCCCCCC)cc2)cc1
0.198
CC1COc2c(N3CCN(C)CC3)c(F)cc3c(=O)c(C(=O)O)cn1c23 (stereo not drawn)
0.582
Cc1oc(=O)oc1CN1CCN(c2cc3c(cc2F)c(=O)c(C(=O)O)c2n3C(C)S2)CC1 (stereo not drawn)
0.549
COc1c(N2C[C@@H]3CCCN[C@@H]3C2)c(F)cc2c(=O)c(C(=O)O)cn(C3CC3)c12
0.574

Here is another compound to look at.
Record CO/N=C1\CN(c2nc3c(cc2F)c(=O)c(C(=O)O)cn3C2CC2)CC1CN (stereo not drawn) has non-growing UPEC CFT073 Regrowth, OD600 at 6h or 8h after dilution into drug-free medium equal to 0.513

----------
# System: intracellular S. flexneri 5a M90T in TC7 cells
# run-description: microbe, parasite or virus in culture
# Format: cell-based, Shigella flexneri
# assay-setup: TC7 cells infected with GFP-expressing S. flexneri, 14 h treatment, 4 x MIC
Rule for this label: 1 means Fluorescence intensity (RFU), Mean, 4 x MIC is less than 3000 RFU; 0 means Fluorescence intensity (RFU), Mean, 4 x MIC is at least 3000 RFU.

Decide: Fluorescence intensity (RFU), Mean, 4 x MIC of `N[C@@H]1[C@H]2CN(c3nc4c(cc3F)c(=O)c(C(=O)O)cn4-c3ccc(F)cc3F)C[C@@H]12` strictly below 3000 RFU?
1

Bench note: check whether `CC[C@H]1OC(=O)C[C@@H](O)[C@H](C)[C@@H](O[C@@H]2O[C@H](C)C[C@H](N(C)C)[C@H]2O)[C@@H](CC=O)C[C@@H](C)C(=O)/C=C/[C@]2(C)O[C@H]2[C@@H]1C` shows Fluorescence intensity (RFU), Mean, 4 x MIC below 3000 RFU
1

Please check: Fluorescence intensity (RFU), Mean, 4 x MIC for `CO[C@H]1/C=C/O[C@@]2(C)Oc3c(C)c(O)c4c(O)c(c(/C=N/N5CCN(C)CC5)c(O)c4c3C2=O)NC(=O)/C(C)=C\C=C\[C@H](C)[C@H](O)[C@@H](C)[C@@H](O)[C@@H](C)[C@H](OC(C)=O)[C@@H]1C` , strictly under 3000 RFU or not?
1

Lab note: Fluorescence intensity (RFU), Mean, 4 x MIC threshold 3000 RFU. Does this compound come in strictly under it? `N#Cc1c(N2C[C@@H]3NCCO[C@H]3C2)c(F)cc2c(=O)c(C(=O)O)cn(C3CC3)c12`
0

State whether 3000 RFU exceeds Fluorescence intensity (RFU), Mean, 4 x MIC recorded for `CN1C[C@@H]2C[C@H]1CN2c1cc2c(cc1F)c(=O)c(C(=O)O)cn2C1CC1` .
0

Please state whether Fluorescence intensity (RFU), Mean, 4 x MIC is below 3000 RFU for `CO[C@H]1/C=C/O[C@@]2(C)Oc3c(C)c(O)c4c(O)c(c(/C=N/N=C/N5CCCCC5)c(O)c4c3C2=O)NC(=O)/C(C)=C\C=C\[C@H](C)[C@H](O)[C@@H](C)[C@@H](O)[C@@H](C)[C@H](OC(C)=O)[C@@H]1C`
1
